Tested on: SF-268 CNS
Test: NCI tumour cell line growth inhibition, 48 h
Experimental Endpoint: GI50

INSERT INTO measurements (compound, experimental_endpoint, reported) VALUES
  ('CCOC(=O)c1c(C)n2c(=O)cc(C)c3c(OC(C)=O)c(OC(C)=O)cc1c32', 'GI50', '5.26 µM'),
  ('CCC[CH2][Sn]([CH2]CCC)([O]C(=O)c1nccnc1N)[O]C(=O)c1nccnc1N', 'GI50', '0.64 µM'),
  ('C=C1CCC2C3(C)COC(c4ccc(SC)cc4)OC3CCC2(C)C1C/C=C1/C(=O)OCC1O (stereo not drawn)', 'GI50', '6.8 µM'),
  ('COc1cc2c3c(n(CCN(C)C)c(=O)c2cc1OC)-c1cc2c(cc1C3=O)OCO2', 'GI50', '0.677 µM'),
  ('CNC(C)C(=O)N[C@H](C(=O)N1CCC[C@@H]1CN(CCc1ccccc1)C(=O)C(F)(F)F)[C@H](C)OCC#CC#CCO[C@H](C)[C@H](NC(=O)[C@H](C)NC)C(=O)N1CCC[C@H]1CN(CCc1ccccc1)C(=O)C(F)(F)F (stereo partly drawn)', 'GI50', '1.94 µM'),
  ('C=C(C)[C@@H]1CCC2=C[C@@H](OC2=O)[C@@H](C(=C)C)C(=O)/C=C(/C)C(=O)C1', 'GI50', '30 µM'),
  ('CC(=O)OC[C@]12CC[C@@H]([C@@H](C)C(N)=O)[C@@H]1[C@H]1CC[C@@H]3[C@@]4(C)CC[C@H](OC(C)=O)C(C)(C)[C@@H]4CC[C@@]3(C)[C@]1(C)CC2', 'GI50', '6.95 µM'),
  ('CC(=O)OCC1OC(OC2=C(CC=C(Cl)Cl)C(=O)c3ccccc3C2=O)C(OC(C)=O)C(OC(C)=O)C1OC(C)=O (stereo not drawn)', 'GI50', '2.75 µM');

Requested read-out: GI50. Entry: Cc1cc(-c2nc(-c3ccc(OC(F)(F)F)cc3)no2)nn1Cc1ccnc(N2CCN(C3CC3)CC2)c1
> 42.7 µM

Requested read-out: GI50. Entry: CN(C)CCN=Cc1c2ccccc2c(=O)n2c1oc1ccccc12
5.56 µM

Requested read-out: GI50. Entry: COC(=O)[C@H](CC(C)C)NC(=O)NC(=O)NC(=O)CI
11.3 µM

Requested read-out: GI50. Entry: NCC1OC(OC2C(CO)OC(OC3C(O)C(N)CC(N)C3OC3OC(CO)C(O)C(O)C3N)C2O)C(N)C(O)C1O (stereo not drawn)
> 50 µg/mL

Requested read-out: GI50. Entry: COc1ccc(Cc2cnc(NC(=O)c3sc4ccccc4c3Cl)s2)cc1
1.26 µM

###

Items are presented alongside their recorded TGI.
Tested on: HCC-2998 colon
Assay: NCI tumour cell line growth inhibition, 48 h
State just the number; it will be interpreted in µM.

Worked cases, TGI given:
INSERT INTO results (compound_string, target_of_assay, experimental_endpoint, reported) VALUES
  ('Nc1ccccc1NC(=O)c1ccc(CN2CCC/C(=C\c3cccc(Cl)c3)C2=O)cc1', 'HCC-2998 colon', 'TGI', 5.7),
  ('CCN(CC)CCNC(=O)c1cccc2cc3ccccc3nc12', 'HCC-2998 colon', 'TGI', 25.9);

Continue with the compound presented below.
Requested read-out: TGI. Entry: Oc1c(-c2ccccc2)sc2ccccc12
39
